- measurement target: glucosylceramide synthase (Homo sapiens)
- Construct: Microsomes were isolated from A375 human melanoma cells; endogenous in cells
- assay text: microsomal assay measuring conversion of ceramide to glucosylceramide by HPLC (GCS IC50)
- run conditions: concentration causing 50% inhibition of glucosylceramide synthase activity
- Experimental: Inhibition of glucosylceramide synthase activity for certain compounds of the invention were measured with 1) a microsomal assay that directly measures the conversion of ceramide to glucosylceramide by HPLC and 2) second, cell based, phenotypic assay that monitors cell surface expression of the downstream lipid GM3 by antibody mediated immunofluorescence. The cell based assay was performed in two different cell types, B16 and C32. Cell viability was also assessed in the second, cell-based assay. […]
Readings of pIC50 for the listed molecules
Interpret pIC50 as the negative base-10 log of the concentration measured in mol/L.

Worked examples, 3 molecules total:
molecule | measurement target | endpoint value
CN(C)C(=O)c1ccc(Oc2ccc(C(C)(C)NC(=O)NC3(C)CCN4CCC3CC4)cc2)cc1 (stereo not shown) [Example 290] | glucosylceramide synthase (Homo sapiens) | 7.72
CC(C)(NC(=O)OC1CCN2CCC1CC2)c1cccc(Oc2cccc(C(=O)N3CCOCC3)c2)c1 (stereo not shown) | glucosylceramide synthase (Homo sapiens) | 6.23
O=C(N1CCN(c2cccc(-c3ccccc3)c2)CC1)N1CCN2CCC1CC2 | glucosylceramide synthase (Homo sapiens) | 4.91

For the next question, use this molecule.
Give the measured pIC50 of O=C(NC1CN2CCC1CC2)N1CCN(c2ccccc2)CC1 (stereo not shown) .
4.91

###

- measurement target: glucosylceramide synthase (Homo sapiens, UniProt Q16739)
- Construct: Microsomes were isolated from A375 human melanoma cells; endogenous in cells
- assay text: microsomal assay measuring conversion of ceramide to glucosylceramide by HPLC (GCS IC50)
- run conditions: concentration causing 50% inhibition of glucosylceramide synthase activity
pIC50: −log10 of the molar value.
Label satisfied when pIC50 is at or above 8; otherwise label not satisfied.

Consider the following illustrative entries.
molecule | measurement target | assigned category
CC1(NC(=O)C2CCN(c3ncc(F)c(-c4ccc(F)cc4)n3)CC2)CN2CCC1CC2 (stereo not shown) [Example 54] | glucosylceramide synthase (Homo sapiens, UniProt Q16739) | satisfied
COCCCOc1ccc(-c2ccc(C3(NC(=O)OC4CCN5CCC4CC5)CC3)cc2)cc1 (stereo not shown) [Example 178] | glucosylceramide synthase (Homo sapiens, UniProt Q16739) | satisfied
CCC1(NC(=O)NC(C)(C)c2ccc(C(=O)N3CCN(c4ccccc4)CC3)cc2)CN2CCC1CC2 (stereo not shown) [Example 306] | glucosylceramide synthase (Homo sapiens, UniProt Q16739) | not satisfied

// switching to the query molecule
I'd appreciate it if you could say whether COCCOc1ccc(-c2cccc(C(C)(C)NC(=O)OC3CCN4CCC3CC4)c2)nc1 (stereo not shown) [Example 311] has pIC50 at least equal to 8.
not satisfied

###

- measurement target: glucosylceramide synthase (Homo sapiens, UniProt Q16739)
- Construct: Microsomes were isolated from A375 human melanoma cells; endogenous in cells
- Sequence (Q16739 1-394): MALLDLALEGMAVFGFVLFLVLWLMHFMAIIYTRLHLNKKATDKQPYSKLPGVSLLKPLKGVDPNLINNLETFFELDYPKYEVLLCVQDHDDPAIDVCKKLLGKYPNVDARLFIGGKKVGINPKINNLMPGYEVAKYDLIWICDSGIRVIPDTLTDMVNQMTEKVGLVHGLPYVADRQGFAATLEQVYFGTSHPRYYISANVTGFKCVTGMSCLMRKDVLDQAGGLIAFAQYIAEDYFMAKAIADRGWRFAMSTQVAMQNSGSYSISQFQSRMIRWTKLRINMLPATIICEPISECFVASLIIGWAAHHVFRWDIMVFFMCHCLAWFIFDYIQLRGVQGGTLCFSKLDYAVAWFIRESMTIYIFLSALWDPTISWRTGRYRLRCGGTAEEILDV
- assay text: microsomal assay measuring conversion of ceramide to glucosylceramide by HPLC (GCS IC50)
- run conditions: concentration causing 50% inhibition of glucosylceramide synthase activity
measured parameter: pIC50
Interpret pIC50 as the negative base-10 log of the concentration measured in mol/L.

Worked examples, 5 compounds total:
compound | endpoint value
CNC(=O)c1cccc(Oc2cccc(C(C)(C)NC(=O)NC3(C)CN4CCC3CC4)c2)c1 (centres unmarked) | 6.70
COCCCOc1cnc(-c2ccc(C(C)(C)NC(=O)OC3CCN4CCC3CC4)cc2)cn1 (centres unmarked) | 7.34
CC1(COc2ccc(-c3ccc(C(C)(C)NC(=O)OC4CN5CCC4CC5)cc3)cc2)COC1 (centres unmarked) | 8.14
COCCCc1ccc(-c2ccc(C3(NC(=O)NC4(C)CCN5CCC4CC5)CC3)cc2)cc1 (centres unmarked) | 8.95
CCCC1(NC(=O)NC(C)(C)c2ccc(-c3ccc(CCO)cc3)cc2)CN2CCC1CC2 (centres unmarked) | 7.69

Give the measured pIC50 of CC(C)(NC(=O)OC1CN2CCC1CC2)c1ccc(-c2ccc(S(=O)(=O)CC3CC3)cc2)cc1 (centres unmarked) .
7.81

Give the measured pIC50 of CC(C)(NC(=O)NC1(C)CCN2CCC1CC2)c1ccc(-c2ccc(OCCn3cccn3)cc2)cc1 (centres unmarked) .
8.63

Give the measured pIC50 of COCCOCc1ccc(-c2ccnc(N3CCC(F)(C(=O)NC4(C)CCN5CCC4CC5)CC3)n2)cc1 (centres unmarked) .
8.08

###

- System: B16 mouse melanoma cells
- assay text: cell viability in the B16 cell-based assay (Viability, B16 IC50)
- run conditions: Mus musculus, B16, read-out: Viability, B16 IC50
pIC50: −log10 of the molar value.
measured parameter: pIC50

Worked examples, 8 molecules total:
molecule | measured parameter | endpoint value
CC(C)(NC(=O)OC1CN2CCC1CC2)c1cccc(Oc2cccc(C(=O)N3CCOCC3)c2)c1 (stereo not drawn) [Example 279] | pIC50 | ≤ 5.00
CC(C)(NC(=O)OC1CN2CCC1CC2)c1ccc(-c2ccc(CN3CCOCC3)cc2)cc1 (stereo not drawn) [Example 229] | pIC50 | ≤ 5.00
CC(C)(NC(=O)OC1CN2CCC1CC2)c1ccc(-c2ccc(OCCn3cccn3)cc2)cc1 (stereo not drawn) [Example 179] | pIC50 | 5.06
COCCOc1ccc(-c2ccc(C(C)(C)NC(=O)O[C@@H]3CN4CCC3CC4)cc2)cc1 [Example 156] | pIC50 | 5.32
COCCOc1ccc(-c2nc(C(C)(C)NC(=O)OC3CN4CCC3CC4)cs2)cc1 (stereo not drawn) [Example 343] | pIC50 | ≤ 5.00
CC(C)(NC(=O)OC1CN2CCC1CC2)c1ccc(-c2ccc(OCCn3ccnn3)cc2)cc1 (stereo not drawn) [Example 182] | pIC50 | 5.50
COCCOc1cccc(-c2ccc(C(C)(C)NC(=O)OC3CN4CCC3CC4)cc2)c1 (stereo not drawn) [Example 167] | pIC50 | ≤ 5.00
O=C(NC1(c2ccc(-c3ccc(COCc4cncnc4)cc3)cc2)CC1)OC1CN2CCC1CC2 (stereo not drawn) [Example 219] | pIC50 | ≤ 5.00

Give the measured pIC50 of COCCOc1ccc(-c2ccc(C(C)(C)NC(=O)OC3CN4CCC3CC4)nc2)cc1 (stereo not drawn) [Example 346] .
≤ 5.00

Give the measured pIC50 of CC(C)(C)CCS(=O)(=O)c1ccc(C#CC(C)(C)NC(=O)OC2CN3CCC2CC3)cc1 (stereo not drawn) [Example 334] .
5.48

Give the measured pIC50 of COCCOc1ccc(-c2ccc(C(C)(C)NC(=O)OC3CN4CCC3CC4)cc2)cn1 (stereo not drawn) [Example 307] .
≤ 5.00

Give the measured pIC50 of COCCCOc1ccc(-c2cccc(C(C)(C)NC(=O)OC3CN4CCC3CC4)c2)nn1 (stereo not drawn) [Example 312] .
≤ 5.00

###

- System: GM3 expression on the cell surface, B16 mouse melanoma cells
- assay text: cell based phenotypic assay, cell surface GM3 by antibody mediated immunofluorescence, B16 (GM3 B16 IC50)
- run conditions: Mus musculus, B16 mouse melanoma cells; 50% inhibition of GM3 expression on the cell surface; read-out: GM3 B16 IC50
Label key: 1 means IC50 under 400 nM; -1 means IC50 of 400 nM or more.

compound | assigned category
CC(C)(NC(=O)NC1(C)CN2CCC1CC2)c1ccc(-c2ccc(OCCn3cccn3)cc2)cc1 (centres unmarked) [Example 180] | 1
CC1(NC(=O)C2CCN(c3nccc(-c4ccc(OCCF)cc4)n3)CC2)CCN2CCC1CC2 (centres unmarked) [Example 71] | 1
COCC1CN(C(=O)NC2(C)CCN3CCC2CC3)CCN1c1nccc(-c2ccccc2)n1 (centres unmarked) [Example 144] | -1

Is 400 nM strictly greater than the compound's reported IC50? compound: CC1(NC(=O)N2CCN(c3ccc(-c4ccccc4)cc3)CC2)CN2CCC1CC2 (centres unmarked) [Example 1]
-1

Is 400 nM strictly greater than the compound's reported IC50? compound: CC1(NC(=O)C2CCN(c3cccc(-c4cncnc4)c3)CC2)CCN2CCC1CC2 (centres unmarked) [Example 40]
-1

Is 400 nM strictly greater than the compound's reported IC50? compound: CC(C)(NC(=O)N1CCN2CCC1CC2)c1ccc(-c2ccc(OCCCn3ccnn3)cc2)cc1 [Example 188]
1

Is 400 nM strictly greater than the compound's reported IC50? compound: CC1(NC(=O)C2CCN(c3cccc(-c4ccc(F)cc4)c3)CC2)CCN2CCC1CC2 (centres unmarked) [Example 34]
1

Is 400 nM strictly greater than the compound's reported IC50? compound: COCCOCc1ccc(-c2nc(N3CCC(F)(C(=O)NC4(C)CCN5CCC4CC5)CC3)ncc2F)cc1 (centres unmarked) [Example 77]
1

Data origin: patent US12060349B2
